- TARGET: HLA-A*33:01
- MEASUREMENT PROTOCOL: IEDB peptide-MHC binding, purified MHC/competitive/radioactivity; filed as Kd, often an IC50 or EC50 that approximates it; bounds were set here for any values at or beyond the usual limits of such assays
- CONDITION NOTES: source organism: Mammarenavirus brazilense
Kd values for the sequences below.

[
  {
    "BIOSEQUENCE": "GSFQEFRSNH",
    "Kd": "≥ 45.2 µM"
  },
  {
    "BIOSEQUENCE": "MVNHSTYYVH",
    "Kd": "3.02 µM"
  }
]

----------
- TARGET: HLA-A*26:01
- MEASUREMENT PROTOCOL: IEDB peptide-MHC binding, purified MHC/direct/fluorescence; filed as Kd, often an IC50 or EC50 that approximates it; bounds were set here for any values at or beyond the usual limits of such assays
- CONDITION NOTES: source organism: Cryptosporidium parvum
pKd: −log10 of the molar value.
MEASURED QUANTITY: pKd

[
  {
    "BIOSEQUENCE": "RLLRMNNEN",
    "MEASURED QUANTITY": "pKd",
    "MEASUREMENT": "≤ 4.70"
  }
]
